Reference source for all entries: PubChem BioAssay

- System: Chordin-like protein 2 (CHRDL2)
- Experiment: compounds binding chordin-like 2 – biochemical, small-molecule microarray, 635 nm fluorescence, primary screen (AID 1126);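 also: printed compound slides probed with Chrdl2 protein at 4 µg/mL for 1 h at 4 C; score merges 667 nm emission intensity with signal to noise over three replicate slides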
- Condition description: fluorescence 635 nm, higher = more signal
Observable: composite z-score

* O=C1CSC(c2cccc([N+](=O)[O-])c2)N1c1ccccc1 (stereo not given) | 0.286
* COc1cccc(C[C@H]2C[C@@H](CO[Si](C(C)C)(C(C)C)C(C)C)N3C(=O)[C@]4(C(C)=O)O[C@]23[C@H]2C(=O)N(C)C(=O)[C@H]24)c1 | 0.403
* COC(=O)[C@@]1(Cc2ccc(F)cc2)[C@H]2c3cc(C(=O)N4CCCC4)n(Cc4ccccc4)c3C[C@H]2CN1C(=O)c1ccccc1 | -1.32
* C=CC[C@@]1(C(=O)NCCN2CCOCC2)N=C(c2ccc(OCCCO)cc2)O[C@@H]1c1ccccc1 | 1.4
* C=CCOC(=O)[C@@H]1[C@H]2C(=O)O[C@H](c3ccccc3)[C@H](c3ccccc3)N2[C@H](c2ccc(OCCOC(=O)[C@H]3C[C@H]4C(=O)N[C@@H](Cc5ccccc5)C(=O)N4[C@H]3c3cccc(OCCO)c3)cc2)[C@@]12C(=O)Nc1ccc(I)cc12 | 1
* O=C1C[C@@](C(=O)NCc2ccccc2)(c2ccc([N+](=O)[O-])cc2)[C@@H](c2ccc(CO)cc2I)N1C1CCCCC1 | 0.633
* O=C1N(CCS(=O)(=O)c2ccccc2)Cc2ccccc2C[C@@]12COC(c1ccc(OCCCO)cc1)=N2 | 0.825
* COC(=O)[C@]1(Cc2ccccc2CN=[N+]=[N-])N=C(c2ccc(OCCCO)cc2)O[C@@H]1c1ccccc1 | -0.928
* COC(=O)C(CC#Cc1ccc2c(c1)[C@]1(C(=O)N2)[C@H](c2ccc(OCCO)cc2)N2[C@H](c3ccccc3)[C@H](c3ccccc3)OC(=O)[C@H]2[C@@H]1C(=O)O)C(=O)OC | 0.368
* C=C[C@@H](O)[C@H]1CC(c2ccccc2)=NO1 | 0.647
* COC(=O)[C@]1(Cc2ccccc2CN=[N+]=[N-])N=C(c2ccc(OCCCO)cc2)O[C@@H]1c1ccccc1CN=[N+]=[N-] | 0.31
* CCCNC(=O)[C@@]1(Sc2ccc(C)cc2)CC(=O)N(Cc2ccccc2)[C@@H]1c1ccc(CO)cc1I | 0.678
* CCCCC=C[C@@H](NC(=O)CCc1ccccc1)c1ccccc1 | 0.0782
* O=C1c2ccccc2C(=O)C2CC([C@H]3Oc4ccccc4S(=O)(=O)N4CCC[C@@H]34)=CCC12 (stereo not given in full) | 0.139
* COCCCNC(=O)[C@]1(Cc2ccccc2CN=[N+]=[N-])N=C(c2ccc(OCCCO)cc2)O[C@@H]1c1ccccc1CN=[N+]=[N-] | -0.0479
